System: corn (Zea mays)
Assay: Test A postemergence
Assay type: in vivo
Details: Zea mays, post-emergence, 240 h, Postemergence, 31 g ai/ha; 0 is no effect, 100 is complete control; read-out: Corn plant response rating (0 to 100 scale)
ASSAY ENDPOINT: plant injury at 31 g/ha (%)
Numbers only, in %.

A selection of reference data follows.
# COMPOUND, plant injury at 31 g/ha (%)
measured = [
    ("CN1C[C@H](c2ccc(Cl)cc2)[C@@H](C(=O)Nc2cccc(F)n2)C1=O", 0),
    ("COc1ccc([C@H]2CN(C)C(=O)[C@@H]2C(=O)Nc2cccc(F)c2F)cc1", 0),
    ("CN1C[C@H](c2csc3c2CCC(F)(F)C3)[C@@H](C(=O)Nc2ccc(F)c(F)c2F)C1=O (racemic)", 0),
]

Quick batch: plant injury at 31 g/ha for everything below.
1. CN1C[C@H](c2csc3c2CCC3)[C@@H](C(=O)Nc2ccccc2F)C1=O
2. CN1C[C@H](c2ccc(C(F)F)cc2)[C@@H](C(=O)Nc2cccnc2F)C1=O
3. Cc1ccc([C@H]2CN(C)C(=O)[C@@H]2C(=O)Nc2cccc(C#N)c2F)cc1

Given back:
0
30
0

* * *

Can you tell me pest or weed control at 31 g/ha for the items I'm about to list?
Tested on: ragweed (common ragweed, Ambrosia elatior)
Assay: Test A postemergence
Format: in vivo
Details: Ambrosia artemisiifolia, post-emergence, 240 h, Postemergence, 31 g ai/ha; 0 is no effect, 100 is complete control; read-out: Ragweed plant response rating (0 to 100 scale)
Give bare numbers, in %.

The cases that follow already have their pest or weed control at 31 g/ha on record.
# STRUCTURE STRING, MEASURED TARGET, ASSAY ENDPOINT, RESULT NUMBER
records = [
    ("N#Cc1ccc([C@H]2CNC(=O)[C@@H]2C(=O)Nc2cccc(F)c2F)cc1F", "ragweed (common ragweed, Ambrosia elatior)", "pest or weed control at 31 g/ha", 0),
    ("Cc1ccc([C@H]2CN(C)C(=O)[C@@H]2C(=O)Nc2cccc(C#N)c2F)cc1", "ragweed (common ragweed, Ambrosia elatior)", "pest or weed control at 31 g/ha", 0),
]

Batch of 2 compounds: report pest or weed control at 31 g/ha for each.
1. CN1C[C@H](c2ccc(C(F)F)cc2)[C@@H](C(=O)Nc2cccnc2F)C1=O
2. CN1C[C@H](c2ccc(Cl)c(F)c2)[C@@H](C(=O)Nc2ccc(F)c(F)c2F)C1=O

Given back:
[0, 0]

* * *

Record form. Attribute: pest or weed control at 250 g/ha. Fill in for each entry.
Test system: giant foxtail (Setaria faberi)
Assay: Test G Post-Emergence Protocol
Format: in vivo
Details: Setaria faberi, post-emergence, 312 h, 250 g ai/ha, evaluated after 13 days, read-out: damage to plant, Foxtail, Giant (100=total damage to plant; 0=no damage to plant)
Give bare numbers, in %.

Take a look at these entries with their results.
# MOLECULE, MEASURED TARGET, MEASUREMENT UNITS, pest or weed control at 250 g/ha
data = [
    ("Cc1c(Cl)ccc([C@@H]2CN(C)C(=O)[C@H]2C(=O)Nc2cccc(F)c2F)c1F (racemic)", "giant foxtail (Setaria faberi)", "%", 70),
    ("CN1C[C@H](c2ccc(C(C)(C)C#N)cc2)[C@@H](C(=O)Nc2ccccc2F)C1=O (racemic)", "giant foxtail (Setaria faberi)", "%", 60),
    ("Cc1ccc(NC(=O)[C@H]2C(=O)N(C)C[C@@H]2c2ccc(C(F)(F)F)cc2)c(C)c1C (racemic)", "giant foxtail (Setaria faberi)", "%", 0),
    ("CN1C[C@@H](c2cncc(Cl)c2)[C@H](C(=O)Nc2cccc(F)c2F)C1=O (racemic)", "giant foxtail (Setaria faberi)", "%", 70),
    ("CN1C[C@H](c2ccc(C(C)(C)C)cc2)[C@@H](C(=O)Nc2ccccc2F)C1=O (racemic)", "giant foxtail (Setaria faberi)", "%", 40),
    ("CN1C[C@@H](c2ccc(C(F)(F)F)cc2)[C@H](C(=O)Nc2ncnn2C)C1=O (racemic)", "giant foxtail (Setaria faberi)", "%", 0),
]

# context switch: different molecule, same pest or weed control at 250 g/ha
Recorded result, CN1C[C@@H](c2ccc(C(F)(F)F)cc2)[C@H](C(=O)Nc2ncccn2)C1=O (racemic) , pest or weed control at 250 g/ha: 10

Measured values drawn from patent US12077503B2 for this set.
